test system: male Std: Wistar rats; assay: Pain test by plantar thermal stimuli (plantar test); assay type: in vivo; conditions: Rattus norvegicus, 4 h, 50 μl of 0.03% (W/V) solution i.pl. into right hind-paw; 4 hours after administration; cut-off 25 seconds; read-out: % MPE (percent maximum possible effect, withdrawal latency)
Label FALSE if change in vivo at 300 µg/mL falls below 70%; label TRUE in every other case.

compound: CCC/C=C/[C@H]1CC[C@@H](NC(=O)Cc2ccc(O)c(OC)c2)CC1
class: TRUE
//
compound: COc1cc(CNC(=O)CCCC/C=C/C(C)C)ccc1O [Capsaicin, (E)-8-methyl-N-vanillyl-6-nonenamide]
class: FALSE
//
compound: COc1cc(CC(=O)NC2CCC(=C3CCCCCC3)CC2)ccc1O (stereo not drawn)
class: TRUE

Check the entry COc1cc(CC(=O)NC2CCC(C3CCCCC3)CC2)ccc1O (stereo not drawn) : does change in vivo at 300 µg/mL equal or exceed 70%? FALSE

Check the entry COc1cc(CC(=O)N[C@H]2CC[C@H](OC(=O)c3ccc(C)cc3)CC2)ccc1O : does change in vivo at 300 µg/mL equal or exceed 70%? FALSE

Check the entry COc1cc(CC(=O)N[C@H]2CC[C@H](/C=C/C3CCC3)CC2)ccc1O : does change in vivo at 300 µg/mL equal or exceed 70%? FALSE

Check the entry COc1cc(CC(=O)N[C@H]2CC[C@H](C=C3CCC3)CC2)ccc1O : does change in vivo at 300 µg/mL equal or exceed 70%? TRUE

Check the entry COc1cc(CC(=O)N[C@H]2CC[C@@H](/C=C/CC3CC3)CC2)ccc1O : does change in vivo at 300 µg/mL equal or exceed 70%? FALSE
